System: Mus musculus
assayComment: Neurotoxicity against Mus musculus (mouse) at 100 mg/kg, ip measured at 0.5 hr by rotarod test
Format: toxicity, organism-based
Set-up: dose 100 mg/kg, route intraperitoneal
testContext: in vivo

chemicalStructure	Activity
O=C1NCCOc2ccc(OCc3cccc(Cl)c3)cc21	Toxic
Cc1ccc(COc2ccc3c(c2)C(=O)NCCO3)cc1	Toxic
O=C1NCCOc2ccc(OCc3c(Cl)cccc3Cl)cc21	Toxic

* * *

assayComment: Protective index, ratio of TD50 for neurotoxicity to ED50 for anticonvulsant activity in mouse
Type: toxicity, organism-based
testContext: in vivo, read-out: Ratio TD50/ED50
readoutLabel: selectivity ratio
Please give only the number in your answer, with no unit.

Check out these entries, answers already filled in.
compound	selectivity ratio
O=C1NCCOc2ccc(OCc3cccc(F)c3)cc21	1
O=C1NCCOc2ccc(OCc3ccccc3)cc21	1
O=C1NCCOc2ccc(OCc3ccccc3F)cc21	1.2
CCCOc1ccc2c(c1)C(=O)NCCO2	2.2
CCCCCOc1ccc2c(c1)C(=O)NCCO2	1.9

## Input Entry under review: `CCCCCCOc1ccc2c(c1)C(=O)NCCO2` . Reported selectivity ratio?
## Output 2.2

## Input Entry under review: `CCCCCCCOc1ccc2c(c1)C(=O)NCCO2` . Reported selectivity ratio?
## Output 2.5

## Input Entry under review: NC(=O)N1c2ccccc2C=Cc2ccccc21 [CARBAMAZEPINE] . Reported selectivity ratio?
## Output 6.4
